What residual activity was measured for each of the following?
Molecular target: MARK2 (human)
Experiment: radiometric filter-binding kinase assay, Kinase HotSpot
Details: compound 0.5 µM; ATP 10 µM
Quick note: give the figure in %, leave out the unit.

Task: Recorded residual activity of `Cc1ccc(Nc2nccc(N(C)c3ccc4c(C)n(C)nc4c3)n2)cc1S(N)(=O)=O` , please.
Output: 111

Task: Another compound: `Cc1ccc(NC2=CC(=O)c3sc(C)nc3C2=O)cc1`
Output: 91.1

Task: Another compound: `CC#CC(=O)Nc1cc2c(Nc3ccc(F)c(Cl)c3)ncnc2cn1`
Output: 105

Task: Another compound: `N#C/C(=C(/N)Sc1ccc(N)cc1)c1ccccc1C(F)(F)F`
Output: 124

Task: Another compound: `c1ccc(-c2n[nH]cc2-c2ccnc3ccccc23)nc1`
Output: 102

Task: Another compound: `CCN(CC)CCNC(=O)c1c(C)[nH]c(/C=C2\C(=O)Nc3ccc(Cl)cc32)c1C`
Output: 9.74

Task: Another compound: `CCN(CC)C(=O)c1ccc(Nc2nc(OCC3CCCCC3)c3nc[nH]c3n2)cc1`
Output: 75.3

Task: Another compound: `O=C1NC(=O)c2c1c1c3ccccc3n3c1c1c2c2ccccc2n1C1CCC3O1`
Output: 4.88

Task: Another compound: `O=C1NC(=O)C(c2cn(CCCn3ccnc3)c3ccccc23)=C1Nc1ccccc1`
Output: 97.1

Task: Another compound: `Oc1cccc(-c2nc(N3CCOCC3)c3oc4ncccc4c3n2)c1`
Output: 92.9

Task: Another compound: `O=S(=O)(c1cccc2cnccc12)N1CCCNCC1`
Output: 108

Task: Another compound: `Nc1cccc(-c2cc3c(Oc4cccc(O)c4)ncnc3[nH]2)c1`
Output: 79

Task: Another compound: `CC[n+]1c(/C=C/N(C)c2ccccc2)n(-c2ccccc2)c2ccc(-c3nc4ccccc4s3)cc21`
Output: 91.6

Task: Another compound: `c1ccc(-c2n[nH]c3c2oc2ccccc23)cc1`
Output: 92.9

Task: Another compound: `COc1ccc2c(c[n+](C)c3c4cc5c(cc4ccc23)OCO5)c1OC`
Output: 95

Task: Another compound: `O=C(Nc1cccc(Nc2nccc(Nc3cccc(C(F)(F)F)c3)n2)c1)C1CC1`
Output: 97

Task: Another compound: `Nc1ccc2ncnc(NCCc3ccc(Oc4ccccc4)cc3)c2c1`
Output: 84.9

Task: Another compound: `O=c1cc(N2CCOCC2)oc2c1ccc1ccccc12`
Output: 101

Task: Another compound: `CNc1cc2c(Nc3cccc(Br)c3)ncnc2cn1`
Output: 90.9

Task: Another compound: `CNC(=O)c1cc(Oc2ccc(NC(=O)Nc3ccc(Cl)c(C(F)(F)F)c3)cc2)ccn1`
Output: 94.9

Task: Another compound: `O=C1NC(=O)/C(=C/c2ccc3c(c2)OC(F)(F)O3)S1`
Output: 96.8

Task: Another compound: `Nc1ncnc2c1c(-c1ccc(Oc3ccccc3)cc1)cn2C1CCCC1`
Output: 86.4
